- Assay protocol: Quantum yield measurements versus Acridine Yellow in EtOH
- Assay type: physicochemical
- Particulars: BDCCA library, Table 4; excitation 460 nm
Can you tell me φ (quantum yield) for the items I'm about to list?
Please reply with the bare figure in % and do not write the unit itself.

Let me know recorded φ (quantum yield) for `CCCCCCc1cn(-c2ccc3n2[B-](F)(F)[N+]2=C(N4CCCCC4)C=CC2=C3c2ccc(NC(=O)CCl)cc2)nn1` , thanks.
1.8

Give the measured φ (quantum yield) for `O=C(CCl)Nc1ccc(C2=C3C=CC(N4CCCCC4)=[N+]3[B-](F)(F)n3c2ccc3-n2cc(-c3ccc(-c4ccccc4)cc3)nn2)cc1`
1.2

Name the recorded φ (quantum yield) of the item `O=C(CCl)Nc1ccc(C2=C3C=CC(N4CCCCC4)=[N+]3[B-](F)(F)n3c2ccc3-n2cc(-c3cccc(F)c3)nn2)cc1` in your answer.
1.0

Return value of φ (quantum yield) for input `CCc1ccc(-c2cn(-c3ccc4n3[B-](F)(F)[N+]3=C(N5CCCCC5)C=CC3=C4c3ccc(NC(=O)CCl)cc3)nn2)cc1` , no commentary.
1.2

Look up φ (quantum yield) of `Cc1cccc(-c2cn(-c3ccc4n3[B-](F)(F)[N+]3=C(N5CCCCC5)C=CC3=C4c3ccc(NC(=O)CCl)cc3)nn2)c1` and report it.
2.7

Hello, please tell me recorded φ (quantum yield) for this one: `O=C(CCl)Nc1ccc(C2=C3C=CC(N4CCCCC4)=[N+]3[B-](F)(F)n3c2ccc3-n2cc(-c3ccc(F)c(F)c3)nn2)cc1`
0.7

Find the measured φ (quantum yield) of `O=C(CCl)Nc1ccc(C2=C3C=CC(N4CCCCC4)=[N+]3[B-](F)(F)n3c2ccc3-n2cc(-c3ccc(F)cc3F)nn2)cc1` and report it.
1.3

Specify φ (quantum yield) for `O=C(CCl)Nc1ccc(C2=C3C=CC(N4CCCCC4)=[N+]3[B-](F)(F)n3c2ccc3-n2cc(-c3cc(C(F)(F)F)cc(C(F)(F)F)c3)nn2)cc1` and stop.
2.6

Look up φ (quantum yield) of `CCCCc1cn(-c2ccc3n2[B-](F)(F)[N+]2=C(N4CCCCC4)C=CC2=C3c2ccc(NC(=O)CCl)cc2)nn1` and report it.
1.3

Write down φ (quantum yield) measured for item `COc1ccc2cc(-c3cn(-c4ccc5n4[B-](F)(F)[N+]4=C(N6CCCCC6)C=CC4=C5c4ccc(NC(=O)CCl)cc4)nn3)ccc2c1`
1.1

State its φ (quantum yield) for this compound: `O=C(CCl)Nc1ccc(C2=C3C=CC(N4CCCCC4)=[N+]3[B-](F)(F)n3c2ccc3-n2cc(C3=CCCCC3)nn2)cc1`
1.7

For CCCCCC(O)c1cn(-c2ccc3n2[B-](F)(F)[N+]2=C(N4CCCCC4)C=CC2=C3c2ccc(NC(=O)CCl)cc2)nn1 (racemic) , write its φ (quantum yield).
0.7

Specify measured φ (quantum yield) for `CCCCCc1ccc(-c2cn(-c3ccc4n3[B-](F)(F)[N+]3=C(N5CCCCC5)C=CC3=C4c3ccc(NC(=O)CCl)cc3)nn2)cc1` .
1.7

Please give the documented φ (quantum yield) of `O=C(CCl)Nc1ccc(C2=C3C=CC(N4CCCCC4)=[N+]3[B-](F)(F)n3c2ccc3-n2cc(C3CCCCC3)nn2)cc1`
2.3
